Target: acetylcholine receptor
Assay: SPR, AchR immobilized on CM5 chip, peptide at 10 uM
measurementName: Binding affinity (RU)

Examples with their reported Binding affinity (RU) follow.
>>> measuredvalue("KWRYRR [6mer-2-395]")
148
>>> measuredvalue("KVVTKR [6mer-2-341]")
144
>>> measuredvalue("KRNDGK [6mer-1-820]")
12

[a] RRDKNR [6mer-1-807]
[b] RNHNK [5mer-701]
[c] KGIRRK [6mer-2-344]
[d] RRTWGR [6mer-1-864]
## Input Please list the entries, largest Binding affinity (RU) first. Field: ranking. Enter the labels in the order requested.
## Output c, d, b, a

[A] KVFTKK [6mer-2-364]
[B] RYCKK [5mer-1023]
## Input Lower value of Binding affinity (RU) belongs to which: A or B ? Indicate your choice by writing its label.
## Output B
(B: 13 RU, A: 154 RU)

[a] RSIYRK [6mer-2-397]
[b] KRINIR [6mer-1-861]
## Input Lower value of Binding affinity (RU) belongs to which: a or b ? Indicate your choice by writing its label.
## Output b
(b: 21 RU, a: 154 RU)
